# testSystem: Estrogen receptor beta (Homo sapiens, UniProt Q92731);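 note: recombinant ER-beta bound to coactivator SRC1 peptide in presence of estradiol agonist; inhibitors block coactivator peptide binding and lower the FRET signal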
# Sequence (Q92731 whole entry): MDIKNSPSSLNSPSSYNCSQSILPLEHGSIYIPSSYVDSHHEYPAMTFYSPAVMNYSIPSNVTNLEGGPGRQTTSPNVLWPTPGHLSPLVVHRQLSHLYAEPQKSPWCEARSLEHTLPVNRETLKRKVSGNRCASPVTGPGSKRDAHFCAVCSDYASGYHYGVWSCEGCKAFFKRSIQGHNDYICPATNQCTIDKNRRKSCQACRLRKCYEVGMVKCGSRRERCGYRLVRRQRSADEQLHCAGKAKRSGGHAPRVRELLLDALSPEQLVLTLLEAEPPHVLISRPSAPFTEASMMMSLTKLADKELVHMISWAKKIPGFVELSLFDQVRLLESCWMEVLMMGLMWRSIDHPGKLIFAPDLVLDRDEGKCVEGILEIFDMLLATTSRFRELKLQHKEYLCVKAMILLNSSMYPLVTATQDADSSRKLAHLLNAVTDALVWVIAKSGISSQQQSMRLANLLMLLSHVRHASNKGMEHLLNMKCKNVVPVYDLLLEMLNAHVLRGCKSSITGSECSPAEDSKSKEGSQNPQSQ
The source made the active and inactive calls.
measuredParameter: IC50

Reported IC50, molecule Cc1c([C@H]2[C@@H](CC#N)C2(C)C)c2ccccc2n1C : ____
> 50 µM (not active)

Reported IC50, molecule COc1cccc2cc3c(=O)n(-c4ccccc4)nc-3oc12 : ____
15.7 µM (active)

Reported IC50, molecule Cc1cc(-c2ccc(N3C(=O)CCC3=O)c(C)c2)ccc1N1C(=O)CCC1=O : ____
> 50 µM (not active)

Reported IC50, molecule O=C(COC(=O)c1cccc(S(=O)(=O)N2CCc3ccccc3C2)c1)NCc1ccco1 : ____
> 50 µM (not active)

From: ChEMBL document CHEMBL1201862
